- Tested on: Akt
- testDetails: Inhibition of Ras downstream pathways: Akt phosphorylation
- Format: cell-based
- testParameters: Homo sapiens, NCI-H1975; NCIH1975 (KRas WT); read-out: IC50 phosphorylation and activation of Akt
pIC50: −log10 of the molar value.

compound	pIC50
COc1cc(C(C)=O)ccc1C(=O)COP(=O)(O)OP(=O)(O)OP(=O)(O)OCC1OC(n2cnc3c(=O)[nH]c(Nc4ccc(O)cc4)nc32)C(O)C1O (stereo not shown) [COMPOUND I]	~5.30
